MV-4-11 Cell Viability % DMSO at 15 μM overview
- Test system: MV-4-11 cells
- methodNotes: MV-4-11 cell viability assay (CellTiter-Glo)
- Format: cell-based
- experimentalParameters: 15 μM; 3 days
recordedEndpoint: MV-4-11 Cell Viability % DMSO at 15 μM (% DMSO)

{"columns": ["compound", "experimentalValue"],
 "data": [
  ["Cc1cc2c(=O)n(C3CCC(=O)NC3=O)c(C)nc2s1 (stereo not shown)", 89],
  ["Cc1nc2c(CN)scc2c(=O)n1C1CCC(=O)NC1=O.O=C(O)C(F)(F)F (stereo not shown)", 94],
  ["Cc1nc2sccc2c(=O)n1C1CCC(=O)NC1=O (stereo not shown)", 97],
  ["Cc1sc2nc(C)n(C3CCC(=O)NC3=O)c(=O)c2c1N (stereo not shown)", 97],
  ["Cc1ccc(NC(=O)NCc2cc3nc(C)n(C4CCC(=O)NC4=O)c(=O)c3s2)cc1Cl (stereo not shown)", 2],
  ["Cc1nc2cc(Br)sc2c(=O)n1C1CCC(=O)NC1=O (stereo not shown)", 100],
  ["Cc1ccc(NC(=O)NCc2scc3c(=O)n(C4CCC(=O)NC4=O)c(C)nc23)cc1Cl (stereo not shown)", 0]
]}

----------
The following molecules are listed with their measured PDE6D % Degradation at 15 μM values.
- targetDesc: PDE6D (Homo sapiens, UniProt O43924+Q96SW2)
- Construct: Whole cell extracts were prepared using RIPA buffer; endogenous in cells; host or cells: MV-4-11
- Sequence (O43924 whole entry): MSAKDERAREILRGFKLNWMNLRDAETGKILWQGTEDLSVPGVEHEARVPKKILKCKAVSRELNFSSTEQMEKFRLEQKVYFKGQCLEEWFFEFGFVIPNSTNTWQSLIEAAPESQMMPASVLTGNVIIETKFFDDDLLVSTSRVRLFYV
- Sequence (Q96SW2 whole entry): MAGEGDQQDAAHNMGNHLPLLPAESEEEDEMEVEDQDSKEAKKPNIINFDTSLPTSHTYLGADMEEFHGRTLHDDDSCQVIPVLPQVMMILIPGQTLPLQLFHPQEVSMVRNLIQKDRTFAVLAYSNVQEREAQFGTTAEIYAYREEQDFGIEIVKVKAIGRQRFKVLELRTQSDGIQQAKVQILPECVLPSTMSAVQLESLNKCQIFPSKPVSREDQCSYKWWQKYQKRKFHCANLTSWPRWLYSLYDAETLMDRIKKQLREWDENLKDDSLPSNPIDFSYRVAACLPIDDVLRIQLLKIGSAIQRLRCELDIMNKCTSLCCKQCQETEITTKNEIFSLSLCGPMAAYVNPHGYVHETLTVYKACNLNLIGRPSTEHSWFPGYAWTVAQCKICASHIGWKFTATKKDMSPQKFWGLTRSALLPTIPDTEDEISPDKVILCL
- Sequence (Q16531 whole entry partner): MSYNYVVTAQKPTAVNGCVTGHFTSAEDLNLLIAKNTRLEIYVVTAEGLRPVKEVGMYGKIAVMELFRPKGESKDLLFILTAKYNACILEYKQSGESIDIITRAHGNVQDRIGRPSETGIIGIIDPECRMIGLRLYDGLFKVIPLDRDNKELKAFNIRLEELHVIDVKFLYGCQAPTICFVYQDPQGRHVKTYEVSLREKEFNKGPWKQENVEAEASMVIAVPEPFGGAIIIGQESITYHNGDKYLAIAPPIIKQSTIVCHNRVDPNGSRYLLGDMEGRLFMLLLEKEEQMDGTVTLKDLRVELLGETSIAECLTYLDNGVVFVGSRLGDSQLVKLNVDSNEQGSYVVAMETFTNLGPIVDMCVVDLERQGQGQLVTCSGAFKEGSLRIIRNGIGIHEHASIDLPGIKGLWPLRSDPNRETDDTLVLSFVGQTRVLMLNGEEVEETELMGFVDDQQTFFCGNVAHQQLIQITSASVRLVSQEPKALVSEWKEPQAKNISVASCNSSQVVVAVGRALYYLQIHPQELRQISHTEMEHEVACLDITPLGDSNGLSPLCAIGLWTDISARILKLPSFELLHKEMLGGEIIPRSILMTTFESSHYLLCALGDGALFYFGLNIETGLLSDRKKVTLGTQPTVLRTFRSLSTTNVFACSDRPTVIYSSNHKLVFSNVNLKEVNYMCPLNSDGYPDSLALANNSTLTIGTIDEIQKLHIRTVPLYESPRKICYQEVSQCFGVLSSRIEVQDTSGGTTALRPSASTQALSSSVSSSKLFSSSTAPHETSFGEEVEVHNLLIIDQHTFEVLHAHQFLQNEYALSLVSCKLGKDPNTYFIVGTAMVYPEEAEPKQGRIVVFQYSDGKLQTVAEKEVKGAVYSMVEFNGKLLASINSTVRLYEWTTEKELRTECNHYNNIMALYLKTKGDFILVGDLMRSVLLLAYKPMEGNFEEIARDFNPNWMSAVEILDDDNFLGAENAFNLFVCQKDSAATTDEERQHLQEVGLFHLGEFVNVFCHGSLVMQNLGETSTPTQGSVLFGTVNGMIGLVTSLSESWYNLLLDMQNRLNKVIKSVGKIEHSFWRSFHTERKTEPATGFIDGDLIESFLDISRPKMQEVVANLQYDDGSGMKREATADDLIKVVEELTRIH
- methodNotes: PDE6 degradation assay (Western blot, MV-4-11 cells)
- Assay type: cell-based
- experimentalParameters: 15 μM, 6-8 hours
recordedEndpoint: PDE6D % Degradation at 15 μM

{"columns": ["molecule", "experimentalValue"],
 "data": [
  ["Cc1nc2c(CN)scc2c(=O)n1C1CCC(=O)NC1=O.O=C(O)C(F)(F)F (stereo not shown)", "30%"],
  ["Cc1ccc(NC(=O)NCc2scc3c(=O)n(C4CCC(=O)NC4=O)c(C)nc23)cc1Cl (stereo not shown)", "0%"],
  ["Cc1nc2cc(Br)sc2c(=O)n1C1CCC(=O)NC1=O (stereo not shown)", "49%"],
  ["Cc1nc2cscc2c(=O)n1C1CCC(=O)NC1=O (stereo not shown)", "0%"],
  ["Cc1nc2scc(Br)c2c(=O)n1C1CCC(=O)NC1=O (stereo not shown)", "0%"],
  ["Cc1ccc(NC(=O)NCc2cc3nc(C)n(C4CCC(=O)NC4=O)c(=O)c3s2)cc1Cl (stereo not shown)", "4%"],
  ["Cc1nc2sccc2c(=O)n1C1CCC(=O)NC1=O (stereo not shown)", "0%"]
]}

----------
- targetDesc: PDE6D (Homo sapiens, UniProt O43924+Q96SW2)
- Construct: Whole cell extracts were prepared using RIPA buffer; endogenous in cells; host or cells: MV-4-11
- methodNotes: PDE6 degradation assay (Western blot, MV-4-11 cells)
- Assay type: cell-based
- experimentalParameters: 30 μM, 6-8 hours
1.0 means recorded PDE6D % Degradation at 30 μM is 20% or above; 0.0 means it is below 20%.

{"columns": ["compound", "classAssignment"],
 "data": [
  ["Cc1nc2cc(Br)sc2c(=O)n1C1CCC(=O)NC1=O (stereo not shown) [Compound 4]", 1.0],
  ["Cc1ccc(NC(=O)NCc2cc3nc(C)n(C4CCC(=O)NC4=O)c(=O)c3s2)cc1Cl (stereo not shown) [Compound 13]", 0.0],
  ["Cc1nc2cscc2c(=O)n1C1CCC(=O)NC1=O (stereo not shown) [Compound 2]", 1.0],
  ["Cc1nc2scc(Br)c2c(=O)n1C1CCC(=O)NC1=O (stereo not shown) [Compound 5]", 0.0],
  ["Cc1ccc(NC(=O)NCc2scc3c(=O)n(C4CCC(=O)NC4=O)c(C)nc23)cc1Cl (stereo not shown) [Compound 12]", 1.0],
  ["Cc1nc2sccc2c(=O)n1C1CCC(=O)NC1=O (stereo not shown) [Compound 3]", 0.0],
  ["Cc1nc2c(CN)scc2c(=O)n1C1CCC(=O)NC1=O.O=C(O)C(F)(F)F (stereo not shown) [Compound 11]", 1.0]
]}

----------
- targetDesc: IKAROS (Homo sapiens, UniProt Q13422+Q96SW2)
- Construct: endogenous in cells; host or cells: MV-4-11
- Sequence (Q13422 whole entry): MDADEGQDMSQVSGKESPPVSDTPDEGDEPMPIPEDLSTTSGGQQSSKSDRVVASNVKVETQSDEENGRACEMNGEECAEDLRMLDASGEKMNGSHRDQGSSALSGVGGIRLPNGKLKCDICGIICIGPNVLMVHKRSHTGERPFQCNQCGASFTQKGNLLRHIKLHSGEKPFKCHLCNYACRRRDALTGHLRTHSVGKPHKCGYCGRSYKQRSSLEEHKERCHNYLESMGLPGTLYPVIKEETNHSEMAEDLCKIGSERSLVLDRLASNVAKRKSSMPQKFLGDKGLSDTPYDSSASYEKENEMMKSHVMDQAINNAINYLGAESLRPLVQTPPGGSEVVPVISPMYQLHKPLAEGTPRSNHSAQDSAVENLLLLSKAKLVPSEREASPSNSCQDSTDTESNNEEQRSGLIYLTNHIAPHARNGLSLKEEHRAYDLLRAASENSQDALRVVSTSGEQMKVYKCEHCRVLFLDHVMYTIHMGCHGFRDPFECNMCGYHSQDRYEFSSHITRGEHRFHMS
- Sequence (Q96SW2 whole entry): as the sequence (Q96SW2 whole entry) above
- Sequence (Q16531 whole entry partner): as the sequence (Q16531 whole entry partner) above
- methodNotes: IKAROS degradation assay (Western blot, MV-4-11 cells)
- Format: cell-based
- experimentalParameters: 30 μM, 6-8 hours
recordedEndpoint: IKAROS % Degradation at 30 μM (%)

{"columns": ["molecule", "experimentalValue"],
 "data": [
  ["Cc1nc2scc(N)c2c(=O)n1C1CCC(=O)NC1=O (stereo not shown) [Compound 10]", 53],
  ["Cc1nc2cscc2c(=O)n1C1CCC(=O)NC1=O (stereo not shown) [Compound 2]", 7],
  ["Cc1ccc(NC(=O)NCc2cc3nc(C)n(C4CCC(=O)NC4=O)c(=O)c3s2)cc1Cl (stereo not shown) [Compound 13]", 55],
  ["Cc1ccc(NC(=O)NCc2scc3c(=O)n(C4CCC(=O)NC4=O)c(C)nc23)cc1Cl (stereo not shown) [Compound 12]", 60]
]}
